study-target: PSG (PSD-95)
assay: FP displacement (competition) of FITC-15 AA CRIPT by library peptide, IC50 and Ki
condition-label: read-out: Ki (µM), PSG; FP displacement of FITC-15 AA CRIPT probe by acetylated PSD library peptide
Please respond with reported Ki for every item in the list.
// units = µM; emit number, no label

## Input Which Ki value belongs to "CSCC[C@H](NC(=O)[C@H](CCC(N)=O)NC(=O)[C@H](CC(=O)O)NC(=O)[C@H](Cc1ccc(O)cc1)NC(=O)[C@H](CC(=O)O)NC(=O)[C@@H]1CCCN1C(=O)[C@H](CO)NC(=O)[C@H](CCCCN)NC(=O)[C@H](CC(C)C)NC(=O)[C@H](Cc1ccc(O)cc1)NC(C)=O)C(=O)N[C@@H](CO)C(=O)N[C@@H](CO)C(=O)N[C@@H](CO)C(=O)N1CCC[C@H]1C(=O)N[C@@H](CS)C(=O)O" ?
## Output 600

## Input // lookup Ki for "CC[C@H](C)[C@H](NC(=O)[C@H](Cc1ccccc1)NC(=O)[C@H](CO)NC(=O)[C@H](CCCNC(=N)N)NC(=O)[C@H](CCCCN)NC(=O)[C@@H]1CCCN1C(=O)[C@H](CCCCN)NC(=O)[C@H](C)NC(=O)[C@H](C)NC(=O)[C@@H](NC(=O)[C@H](Cc1ccc(O)cc1)NC(C)=O)[C@@H](C)O)C(=O)N[C@@H](CCC(=O)O)C(=O)N[C@@H](CO)C(=O)N[C@@H](CC(N)=O)C(=O)N[C@H](C(=O)O)C(C)C"
## Output 28

## Input Ki lookup needed for CC[C@H](C)[C@H](NC(=O)[C@H](CC(C)C)NC(=O)[C@H](C)NC(=O)[C@@H](NC(=O)[C@H](C)NC(=O)[C@H](Cc1ccc(O)cc1)NC(C)=O)C(C)C)C(=O)N[C@@H](C)C(=O)N[C@@H](Cc1ccc(O)cc1)C(=O)N[C@@H](CC(C)C)C(=O)N[C@@H](CO)C(=O)N[C@@H](CCCCN)C(=O)N[C@@H](CC(N)=O)C(=O)N[C@@H](CC(N)=O)C(=O)N[C@@H](Cc1c[nH]cn1)C(=O)N[C@@H](CC(C)C)C(=O)O [SYNG1] , thanks.
## Output 613

* * *

Kindly state IC50 for each of the entries shown.
study-target: PSG G322A G335A (PSD-95)
assay: FP displacement (competition) of FITC-15 AA CRIPT by library peptide, IC50 and Ki
condition-label: read-out: IC50 (µM), PSG G322A G335A; FP displacement of FITC-15 AA CRIPT probe by PSD library peptide; protein PSG G322A G335A
Response body: numeric value in µM, unit text excluded.

## Input Which IC50 is reported for this compound? CC[C@H](C)[C@H](NC(=O)[C@H](CCC(=O)O)NC(=O)[C@@H](NC(=O)[C@H](C)NC(=O)[C@@H](NC(=O)[C@@H](NC(=O)[C@H](CC(=O)O)NC(=O)[C@H](CCC(=O)O)NC(=O)[C@H](Cc1ccc(O)cc1)NC(=O)[C@@H]1CCCN1C(=O)[C@@H](NC(=O)[C@H](CC(=O)O)NC(=O)[C@H](C)NC(=O)CNC(=O)[C@H](Cc1ccc(O)cc1)NC(C)=O)[C@@H](C)CC)[C@@H](C)CC)[C@@H](C)CC)[C@@H](C)O)C(=O)O [LZTS1]
## Output 1120

## Input Report IC50 for CC[C@H](C)[C@H](NC(=O)[C@H](CO)NC(=O)[C@@H]1CCCN1C(=O)[C@H](CCSC)NC(=O)[C@H](CCCCN)NC(=O)[C@H](CCCCN)NC(=O)[C@H](Cc1ccc(O)cc1)NC(=O)[C@@H](NC(=O)[C@H](CCCNC(=N)N)NC(=O)[C@H](CCCNC(=N)N)NC(=O)[C@H](Cc1ccc(O)cc1)NC(C)=O)C(C)C)C(=O)N[C@@H](CCC(=O)O)C(=O)N[C@@H](CO)C(=O)N[C@@H](CC(=O)O)C(=O)N[C@H](C(=O)O)C(C)C [NMDE1] please.
## Output 156

## Input Fill blank: measured IC50 of the compound CC(=O)N[C@@H](Cc1ccc(O)cc1)C(=O)N[C@@H](CC(=O)O)C(=O)N[C@@H](CCCCN)C(=O)N[C@@H](CCCNC(=N)N)C(=O)N[C@@H](CC(=O)O)C(=O)N[C@@H](CO)C(=O)N[C@@H](CCC(=O)O)C(=O)N[C@@H](CCC(=O)O)C(=O)N[C@@H](CCC(=O)O)C(=O)N[C@@H](CO)C(=O)N[C@@H](CCC(=O)O)C(=O)N[C@@H](CO)C(=O)N[C@H](C(=O)N[C@@H](C)C(=O)N[C@@H](CC(C)C)C(=O)O)[C@@H](C)O [RHG44] is ____.
## Output 944
